In this section, each of the compounds is paired with its reported T/C.
- Test system: P388 leukemia ip, CD2F1 mice, survival T/C
- Test Details: NCI In Vivo Anticancer Drug Screen. Data for tumor model P388 Leukemia (intraperitoneal) in CD2F1 (CDF1) mice
- Condition Notes: endpoint: median survival time; dose: 50.0 mg/kg/injection; schedule: Q01DX005 (ip); vehicle: Klucel (hydroxypropylcellulose) (HPC); higher = longer survival
Inconclusive results and toxic doses are left out.

Compound	Reported Result
COc1cc(/C=C/C(=O)NCCc2c[nH]c3ccc(O)cc23)ccc1O	88 % of control

I would be grateful if you could share the reported T/C for "COC(=O)CCC1=C(C)c2cc3[nH]c(cc4[nH]c(cc5nc(cc1n2)C(CCC(=O)OC)=C5C)c(C#N)c4C)c(C#N)c3C" . 104 % of control

I would be grateful if you could share the reported T/C for "NCCCNC(=O)c1ccccc1N" . 100 % of control

I would be grateful if you could share the reported T/C for "COc1ccc2c(c1)N(S(=O)(=O)c1ccc(C)cc1)C/C(=C\N1CCN(c3ccccc3)CC1)C2=O" . 96 % of control

I would be grateful if you could share the reported T/C for "NC(=O)N/N=C/Cn1ccc(=O)[nH]c1=O" . 99 % of control

I would be grateful if you could share the reported T/C for "CCCCCCCCCCCC1=C(O)C(=O)C(CC2=C(O)C(=O)C(CCCCCCCCCCC)=C(O)C2=O)=C(O)C1=O" . 86 % of control
